# measurement_target: T1, human CD70 (human, UniProt P32970 1-193)
# T1 construct: also called hu CD70; CD27L
# T1 sequence: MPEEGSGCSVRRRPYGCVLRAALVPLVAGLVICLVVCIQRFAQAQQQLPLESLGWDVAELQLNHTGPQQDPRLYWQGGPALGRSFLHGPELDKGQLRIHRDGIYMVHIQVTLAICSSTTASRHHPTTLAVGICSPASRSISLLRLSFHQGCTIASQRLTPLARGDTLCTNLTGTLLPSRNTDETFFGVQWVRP
# experimental_details: FACS on CHO cells, periplasmic scFv
measure: binding result

binder	measure	value
CD70-56 (scFv, As m32) scFv: QVQLVESGGGVVQPGRSLRLSCAASGFTFSSYGMHWVRQAPGKGLEWVAVISYDGSNKYYADSVKGRFTISRDNSKNTLYLQMNSLRAEDTAVYYCARGRYYGSGSYNYGMDVWGQGTTVTVSSGGGGSGGGGSGGGGSDIQMTQSPSSLSASVGDRVTITCRASQSIFDYLNWYQQKPGKAPKLLIYAASSLQSGVPSRFSGSGFGTDFTLTISSLQPEDFATYYCQQSYSTPLTFGGGTKLEIK	binding result	binds
CD70-52 (scFv, As m32) scFv: QVQLQESGPGLVKPSETLSLTCTVSGGSVSTDGYYWSWIRQPPGKGLEWIGYIYYSGSTNYNPSLKSRVTISVDTSKNQFSLKLSSVTAADTAVYYCARGIGLGFEYWGQGTLVTVSSGGGGSGGGGSGGGGSSYVLTQLSSVSVAPGQTARITCGGNNIGSKSVHWYQQKPGQAPVLVVYDDSDRPSGIPERFSGSNSGNTATLTISRVEAGDEADYYCQVWDRSSDQDVVFGGGTKLTVL	binding result	binds
